Test system: IGROV1 ovarian
test.method.notes: NCI tumour cell line growth inhibition, 48 h; in the data active means GI50 below about 0.43 µM; inactive means the rest
Respond with a class label; see active, inactive

Exercise: Name the outcome recorded for "CCC(CC)c1cc(N[C@H]2CC[C@H](N)C2)n2nccc2n1" in the assay.
Key: inactive

Exercise: Lookup "CCOC(=O)Nc1ccc2nc(N3CCCCCC3)sc2c1"
Key: inactive

Exercise: Lookup CC(C)(C)[Si](C)(C)OC1[C@@H](O[Si](C)(C)C(C)(C)C)[C@@H](CNC(=O)NC(=O)NC(=O)CCl)O[C@H]1n1cnc2c(NC(=O)Nc3ccccc3)ncnc21 (stereo not given in full)
Key: active

Exercise: Lookup "Clc1ccc(-c2nc3c(-c4ccccc4)nc(-c4ccccc4)cn3c2-c2ccc(Cl)cc2)cc1"
Key: inactive

Exercise: Lookup CC(=O)OC1CC2C(C)(C)CCC[C@]2(C)C2=C1C(O)=C(C(C)C)C(=O)C2=O (stereo not given in full)
Key: inactive

---

Tested on: 786-0 renal
test.method.notes: NCI tumour cell line growth inhibition, 48 h
observed.property: TGI

Exercise: Request: TGI, test system 786-0 renal, entry "Cc1n[nH]c(=O)n1Nc1ccccc1"
Key: > 100 µM

Exercise: Lookup "O=S(=O)(Nc1nccs1)c1ccc([As](=O)(O)O)cc1"
Key: > 100 µM

Exercise: Lookup "Nc1c(C(=O)c2ccc(C#CCN3CCOCC3)cc2)cnn1-c1ccc(F)cc1"
Key: > 25 µM

Exercise: Lookup Cc1ccc(C(=O)C(c2nc3n(c2O)C(=N)N=N3)c2nc3n(c2O)C(=N)N=N3)cc1 (stereo unspecified)
Key: > 100 µM

Exercise: Lookup "CCOC(=O)NC(Nc1ccc(S(=O)(=O)Nc2ccc(OC)nn2)cc1)(C(F)(F)F)C(F)(F)F"
Key: 59 µM

Exercise: Lookup "CC[O-].CC[O-].COc1ccc(C(=O)[CH-]C(C)=O)cc1OC.COc1ccc(C(=O)[CH-]C(C)=O)cc1OC.[Ti+4]"
Key: > 100 µM

Exercise: Lookup O=C1CC(C(=O)O)Cc2c(Br)ccc(O)c21 (stereo unspecified)
Key: > 100 µM

Exercise: Lookup "O=C1NC(=S)N/C1=C\c1ccc(Cl)cc1"
Key: > 100 µM

Exercise: Lookup CC1NC(C(=O)O)Cc2cc(O)c(O)cc21 (stereo unspecified)
Key: > 100 µM

Exercise: Lookup O=C(NC(=O)c1ccccc1)OC(c1ccccc1)C1CO1 (stereo unspecified)
Key: > 100 µM

Exercise: Lookup "CCCCCCCCCC(=O)NCCc1c[nH]c2ccc(OC)cc12"
Key: 38.7 µM

Exercise: Lookup "N#Cc1sc2c(c1OC(=O)c1ccc(Cl)cc1)c(=O)n(-c1ccccc1)c(=S)n2-c1ccccc1"
Key: 63.6 µM

Exercise: Lookup "COC(C)(C)[C@@H]1CCCN1C1=C(C)C(=O)OC1"
Key: > 100 µM

Exercise: Lookup "O=c1sc(Nc2ccc3ccccc3c2Cl)nc2ccccc12"
Key: > 100 µM

Exercise: Lookup CO[C@H](C(=O)O[C@H]1C(=O)N2CC[C@@H]3CCC[C@H]1C32C)c1ccccc1 (stereo partly specified)
Key: > 100 µM

Exercise: Lookup COc1ccc(C2CC(c3ccc(NS(=O)(=O)c4cc([N+](=O)[O-])ccc4C)cc3)=NN2S(=O)(=O)c2cc([N+](=O)[O-])ccc2C)cc1 (stereo unspecified)
Key: > 100 µM

Exercise: Lookup "N.N.N.N.N.N#Cc1nn[n-]n1.[Cl-].[Co+3]"
Key: > 100 µM

Exercise: Lookup COC(O)C(=O)c1c2c(cc3c1CCC3)CCC2 (stereo unspecified)
Key: > 100 µM

Exercise: Lookup "CN(C)CCCOc1ccc(/C=C2/CCC/C(=C/c3ccc(OCCCN(C)C)cc3)C2=O)cc1"
Key: 2.59 µM

Exercise: Lookup "CN(CC(=O)O)CC(=O)O"
Key: > 100 µM

Exercise: Lookup "COc1ccc(C(OC(=O)[C@H](O[Si](C)(C)C(C)(C)C)[C@@H](NC(=O)c2ccccc2)c2ccccc2)c2ccc(OC)cc2)cc1"
Key: > 100 µM

Exercise: Lookup CCSc1nc(NC(C)c2ccccc2)c2cnn(CO)c2n1 (stereo unspecified)
Key: > 100 µM

Exercise: Lookup "O=[N+]([O-])c1ccc(Cc2nc3cc4ccccc4cc3[nH]2)cc1C(F)(F)F"
Key: 25.4 µM

Exercise: Lookup "C[C@]12CCCN1CC1=NNC(=O)c3cc(F)cc4[nH]c2c1c34"
Key: > 100 µM

Exercise: Lookup "CN1C(=O)N/C(=C\c2ccc(S(=O)(=O)N/N=C/c3ccccc3)cc2)C1=O"
Key: > 100 µM

Exercise: Lookup N#CCCN(C1=NN(C(=O)CC(=O)Nc2ccc(Cl)cc2)C(c2ccccc2)C1)c1ccc(Cl)cc1 (stereo unspecified)
Key: > 100 µM

Exercise: Lookup "COc1ccc(-c2[nH]c(-c3ccc(OC)cc3)c(-c3ccccn3)c2-c2ccccn2)cc1"
Key: > 100 µM

Exercise: Lookup NC1=NCC(CN2CCCCC2)O1 (stereo unspecified)
Key: > 100 µM

Exercise: Lookup "COc1cccc(CCNC(=O)CC(c2ccccc2)(c2ccccc2)c2ccccc2)c1"
Key: > 100 µM

Exercise: Lookup "CC(=O)n1nnc2ccc([N+](=O)[O-])cc21"
Key: > 100 µM

Exercise: Lookup "COc1ccc(N=N/C(=N\NC(=O)c2cc(Br)ccc2O)c2ccc(N(CCC#N)CCC#N)cc2OC)cc1"
Key: > 150 µg/mL

Exercise: Lookup "Fc1cc(C2=Nn3c(CNc4ccc(Cl)cc4)nnc3S/C2=C\c2ccc(-c3ccc(Cl)cc3)o2)c(Cl)cc1Cl"
Key: > 100 µM

Exercise: Lookup "Cc1cccc2c(N)c3cccc(C(=O)NCC[N+](C)(C)Cc4ccc(S(C)(=O)=O)cc4)c3nc12"
Key: > 100 µM

Exercise: Lookup "CCN(CC)C(=S)/N=C(\SC(=S)N(CC)CC)c1ccccc1"
Key: > 100 µM

Exercise: Lookup "O=C(NCCCl)NCCN1c2nc3ccccc3cc2Sc2cc3ccccc3nc21"
Key: 4.89 µM

Exercise: Lookup "O=C(CN1CCN(CCN2C(=O)c3cccc4cccc(c34)C2=O)CC1)Nc1ccc2ncsc2c1"
Key: 20.8 µM

Exercise: Lookup "Brc1c2c(c(Br)c3nsnc13)N=S=N2"
Key: 41.6 µM

Exercise: Lookup N#CC(c1ccccc1)N(CCc1ccccc1)C(=O)c1ccc(C(=O)N(CCc2ccccc2)C(C#N)c2ccccc2)cc1 (stereo unspecified)
Key: 56.5 µM

Exercise: Lookup "COC(=O)CNC(=O)CNC(=O)CSc1nnc(COc2ccc(Cl)cc2)n1-c1ccccc1"
Key: > 100 µM

Exercise: Lookup COC(=O)CC1C2(C)C3=C(C)C(c4ccoc4)CC3OC2C2OC(=O)C3(C)C=CC(=O)C1(C)C23 (stereo unspecified)
Key: 2.34 µM

Exercise: Lookup "O=C1CNc2cc(N3CCOCC3)ccc2N1"
Key: > 100 µM

---

Tested on: MALME-3M melanoma
test.method.notes: NCI tumour cell line growth inhibition, 48 h
observed.property: TGI (µM)
Give the value in µM but do not write µM after it.

Exercise: // lookup TGI for Nc1nc(=S)c2ncn(C3OC(CO)C(O)C3O)c2[nH]1 (stereo not given)
Key: 31.1

Exercise: Lookup O=C(Nc1ccn(C2CC(I)C(COC(c3ccccc3)(c3ccccc3)c3ccccc3)O2)c(=O)n1)c1ccccc1 (stereo not given)
Key: 13.4

Exercise: Lookup "CCC(CC)c1cc(N[C@H]2CC[C@H](N)C2)n2nccc2n1"
Key: 6.24

Exercise: Lookup C/C=C(\C)c1cc(=O)c2c(C)cc3c(c2o1)C(OC)(OC(C)=O)c1c(O)c(C2CC(C)(N(C)C)C(OC(C)=O)C(C)O2)cc(C2CC(N(C)C)C(OC(C)=O)C(C)O2)c1C3=O (stereo not given)
Key: 2.37

---

Test system: MDA-MB-231 breast
test.method.notes: NCI tumour cell line growth inhibition, 48 h; in the data active = GI50 below about 0.43 µM; inactive = the rest
Respond with a class label; see active, inactive

Exercise: Name the outcome recorded for "Cc1ccc(/C=C(/C#N)n2nnc3ncccc32)cc1" in the assay.
Key: inactive

Exercise: Lookup "C[C@]12CCCN1CC1=NNC(=O)c3cc(F)cc4[nH]c2c1c34"
Key: inactive

Exercise: Lookup "Cc1cncc(-c2nc(NCCc3c[nH]c4ccccc34)c3ncn(C(C)C)c3n2)c1"
Key: inactive

Exercise: Lookup "CCNC(=O)Oc1ccc(/C(=C(\C)c2ccc(Cl)cc2)c2ccc(OCCN(CC)CC)cc2)cc1"
Key: inactive

Exercise: Lookup "Clc1ccc(-c2nc3c(-c4ccccc4)nc(-c4ccccc4)cn3c2-c2ccc(Cl)cc2)cc1"
Key: inactive

Exercise: Lookup "NS(=O)(=O)c1ccc(N=Nc2c(O)[nH]c3ccc(C(=O)NCCc4cnc[nH]4)cc23)cc1"
Key: inactive

Exercise: Lookup "[N-]=[N+]=NCCCn1c2c(c3ccc([N+](=O)[O-])cc3c1=O)C(=O)c1cc(I)ccc1-2"
Key: inactive

Exercise: Lookup "Fc1ccc(Nc2ncc(-c3cc(F)c(Cl)cc3Cl)s2)cc1Cl"
Key: inactive

Exercise: Lookup "COC1=CC(c2ccc[nH]2)=N/C1=C\c1[nH]c(C)c(C(=O)Oc2ccccc2)c1C"
Key: active

Exercise: Lookup "CON=C1C[C@]2(C[C@@H]3C[C@@H](C/C=C(\C)C[C@@H](C)/C=C/C=C4\CO[C@@H]5[C@H](O)C(C)=C[C@@H](C(=O)O3)[C@]45O)O2)O[C@H](/C(C)=C/C(C)C)[C@H]1C"
Key: inactive

Exercise: Lookup COc1ccc(C2=NN(C=O)C(c3ccc(OS(=O)(=O)c4ccc(C)cc4)c(OC)c3)C2)cc1 (stereo not drawn)
Key: inactive

Exercise: Lookup Nc1nc(=S)c2ncn(C3OC(CO)C(O)C3O)c2[nH]1 (stereo not drawn)
Key: inactive

Exercise: Lookup "COc1ccc(N=N/C(=N\NC(=O)c2cc(Br)ccc2O)c2ccc(N(CCC#N)CCC#N)cc2OC)cc1"
Key: inactive

Where do these numbers come from? They come from PubChem BioAssay (NCI).
